Origin of values: the Human Domainome abundance scans (Beltran et al. 2025)

B1: KAT8 regulatory NSL complex subunit 2, residues 28 to 91; numbered along this chain, Q9H9L4 (parent)
chain: CAFTHRPCSHPRLEGQEFCIKHILEDKNAPFKQCSYISTKNGKRCPNAAPKPEKKDGVSFCAEH

# Variants of: B1
# protocolSummary: abundance fitness (aPCA) (normalised: wild type 0, dead -1); higher = more abundant; growth selection in yeast, the domain comes from the species named
# protocolConditions: Homo sapiens
Label T for high-side abundance fitness (at or above -0.2) and F for low-side abundance fitness (below it).

[[record]]
sequencecode = "CAFTHRPCSHPRLEGQEFCIKHILEDKNAPFKQCSYISTKNGKRCPNAAKKPEKKDGVSFCAEH"
category = "T"

[[record]]
sequencecode = "CAFTHRPCSHPRLEGQEFCIKHILEDKFAPFKQCSYISTKNGKRCPNAAPKPEKKDGVSFCAEH"
category = "T"

[[record]]
sequencecode = "CAFTHRPCSHPRLEGQEECIKHILEDKNAPFKQCSYISTKNGKRCPNAAPKPEKKDGVSFCAEH"
category = "F"

[[record]]
sequencecode = "CAFTHRPCSHLRLEGQEFCIKHILEDKNAPFKQCSYISTKNGKRCPNAAPKPEKKDGVSFCAEH"
category = "T"

[[record]]
sequencecode = "CAFTHRPCSHPRLEGQEFCIKHILEDKNAPFKQCSYISTKNSKRCPNAAPKPEKKDGVSFCAEH"
category = "T"

[[record]]
sequencecode = "CAFTHRPCSHPRLEGQEFCYKHILEDKNAPFKQCSYISTKNGKRCPNAAPKPEKKDGVSFCAEH"
category = "T"

[[record]]
sequencecode = "CAFTHRPCSHPRLEGQEFCIKHILEDKNAPFKQCSYISTKNGKRCPNAAFKPEKKDGVSFCAEH"
category = "T"

[[record]]
sequencecode = "CAFTHRPCSHPFLEGQEFCIKHILEDKNAPFKQCSYISTKNGKRCPNAAPKPEKKDGVSFCAEH"
category = "F"

[[record]]
sequencecode = "CAFTHRPCSHPRLEGQEFCIKHILEDKNAPFKQCSYISTKNGKRCPNAAPKPEKKDGVSFCAEP"
category = "F"

[[record]]
sequencecode = "CAFTHRPCSHPRLEGPEFCIKHILEDKNAPFKQCSYISTKNGKRCPNAAPKPEKKDGVSFCAEH"
category = "F"

[[record]]
sequencecode = "CAFTHRPCSHPRLEGQEFCIKHILEDKNAPFKQCSGISTKNGKRCPNAAPKPEKKDGVSFCAEH"
category = "T"

